pIC50: −log10 of the molar value.
Give measured pIC50 for each item. Keep answers brief.

Form field: pIC50 recorded for "COC[C@H]1OC(=O)/C(=C/N(CCO)C(C)(C)C)C2=C(O)C(=O)C3=C([C@H](OC(C)=O)C[C@]4(C)[C@@H](O)CC[C@@H]34)[C@]21C" with Cyclin-dependent kinase 4 (Homo sapiens, UniProt P11802) (enter value)
Sequence (P11802 whole entry): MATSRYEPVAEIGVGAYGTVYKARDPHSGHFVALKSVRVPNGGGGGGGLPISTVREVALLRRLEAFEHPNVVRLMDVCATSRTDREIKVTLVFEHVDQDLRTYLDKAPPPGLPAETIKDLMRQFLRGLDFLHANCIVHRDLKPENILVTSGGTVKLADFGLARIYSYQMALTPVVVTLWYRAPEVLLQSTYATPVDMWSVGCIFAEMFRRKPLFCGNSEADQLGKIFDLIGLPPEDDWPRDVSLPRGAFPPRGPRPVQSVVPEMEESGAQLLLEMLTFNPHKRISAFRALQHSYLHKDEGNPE
< 4.30

Form field: pIC50 recorded for "COC[C@H]1OC(=O)/C(=C/N(C)CCCN(C)C)C2=C(O)C(=O)C3=C([C@H](OC(C)=O)C[C@]4(C)[C@@H](O)CC[C@@H]34)[C@]21C" with Cyclin-dependent kinase 4 (Homo sapiens, UniProt P11802) (enter value)
< 4.30
